# Test system: L. major (strain Friedlin) in J774 cells
# test_method_notes: J774 luciferase infection assay (Assay Conditions E)
# Format: cell-based, Leishmania major
# protocol_conditions: values marked e
Marks after values point to notes of the source that are not given here.
Listed compounds paired with reported L. major amastigotes EC75 (J774 cells)

Solved cases below.
CC(C)Cc1n[nH]c2c1C(c1ccccc1Br)N(c1ccc3c(c1)OCO3)C2=O (stereo not shown) [CMLD011548]: 1.8^e μM
COc1ccc(N2C(=O)c3[nH]nc(CC(C)C)c3C2c2ccccc2Cl)cn1 (stereo not shown) [BUCMD00686]: >10^e μM
CC(C)Cc1n[nH]c2c1C(c1ccc(F)cc1)N(c1ccc3c(c1)OCO3)C2=O (stereo not shown) [CMLD010901]: 6.0^e μM
COc1ccc(N2C(=O)c3[nH]nc(CC(C)C)c3C2c2ccc(F)cc2OC)cn1 (stereo not shown) [CMLD011574]: 4.8^e μM
Cc1cc(F)ccc1C1c2c(CC(C)C)n[nH]c2C(=O)N1c1ccc2c(c1)OCO2 (stereo not shown) [CMLD011564]: 1.4^e μM
CC(C)Cc1n[nH]c2c1C(c1ccccc1Cl)N(c1ccc3c(c1)OCO3)C2=O (stereo not shown) [CMLD010902]: 7.3^e μM

Now let's try a different one.
// L. major amastigotes EC75 (J774 cells) lookup, key: COc1ccc(N2C(=O)c3[nH]nc(CC(C)C)c3C2c2ccccc2Cl)cc1 (stereo not shown) [CMLD010893]
8.3^e μM

###

# test_method_notes: Mouse microsomal stability
# Format: in vitro ADME
# protocol_conditions: female, CD1, pH 7.4; mouse liver microsomes; read-out: Microsomal stability (mouse) t1/2
measured_property: half-life at 0.5 μM

// half-life at 0.5 μM lookup, key: COc1ccc(N2C(=O)c3[nH]nc(CC(C)C)c3C2c2ccc(F)cc2)cc1 (racemic)
> 20 min

###

# test_method_notes: UCSD infection assay, host cell cytotoxicity (CC50)
# Format: cell-based
# protocol_conditions: mouse, B10R host cells infected with L. donovani; host B10R cells
Listed molecules paired with reported CC50 at 72 h
Report the figure in µM without appending any unit label.

Solved cases below.
Cc1ccc(N2C(=O)c3[nH]nc(CC(C)C)c3C2c2ccc(Cl)cc2F)cn1 (stereo not shown): 10
Cc1ccc(N2C(=O)c3[nH]nc(CC(C)C)c3C2c2ccccc2C)cn1 (stereo not shown): 15.8
C#CCCCCn1nc(CC(C)C)c2c1C(=O)N(c1ccc(OC)cc1)C2c1ccc(F)cc1 (stereo not shown): 10

Now let's try a different one.
// CC50 at 72 h lookup, key: CC(C)Cc1n[nH]c2c1C(c1ccc(F)cc1F)N(c1ccc(N3CCN(C)CC3)nc1)C2=O (stereo not shown)
7.94

###

# System: HepG2 cells
# test_method_notes: HepG2 cytotoxicity
# Assay type: cell-based
# protocol_conditions: Homo sapiens; toxicity against HepG2 cells
Listed compounds paired with reported EC50
Report the figure in µM without appending any unit label.

Solved cases below.
COc1ccc(N2C(=O)c3[nH]nc(CC(C)C)c3C2c2cccc(Cl)c2)cc1 (stereo not drawn) [Compound 59]: 39.8
COc1ccc(N2C(=O)c3[nH]nc(CC(C)C)c3C2c2ccc(Br)cc2)cc1 (stereo not drawn) [Compound 48]: 50.1
COc1ccc(N2C(=O)c3[nH]nc(CC(C)C)c3C2c2cccc(Br)c2)cc1 (stereo not drawn) [Compound 60]: 39.8

Now let's try a different one.
// EC50 lookup, key: COc1ccc(N2C(=O)c3[nH]nc(CC(C)C)c3C2c2ccccc2F)cc1 (stereo not drawn) [Compound 54]
31.6

###

Listed compounds paired with reported CC50
# test_method_notes: GSK inMac assay, host cell toxicity readout (LD MAC)
# Type: cell-based, human
# protocol_conditions: human; footnote c; read-out: THP-1 Host Cell CC50
Report the figure in µM without appending any unit label.

COc1ccc(N2C(=O)c3[nH]nc(CC(C)C)c3[C@@H]2c2cccc(C(F)(F)F)c2)cn1: 25.1

// CC50 lookup, key: CCCn1nc(CC(C)C)c2c1C(=O)N(c1ccc(OC)cc1)C2c1ccc(F)cc1 (centres unmarked)
25.1

###

# System: L. donovani intracellular amastigotes in B10R cells
# test_method_notes: UCSD L. donovani infection assay (Assay Conditions D)
# Type: cell-based
# protocol_conditions: B10R cells
measured_property: L. donovani amastigotes EC75 (μM, B10R cells)

Solved cases below.
Cc1ccsc1C1c2c(CC(C)C)n[nH]c2C(=O)N1c1cnn(C(C)C)c1 (stereo not shown) [BUCMD00680]: >10 µM
Cc1ccc(N2C(=O)c3[nH]nc(CC(C)C)c3C2c2ccc(Cl)cc2F)cn1 (stereo not shown) [BUCMD00627]: >10 µM
COc1cc(N2C(=O)c3[nH]nc(CC(C)C)c3C2c2ccc(F)cc2)ccn1 (stereo not shown) [BUCMD00163]: >10 µM
Cc1ccc(N2C(=O)c3[nH]nc(CC(C)C)c3C2c2ccccc2Cl)cn1 (stereo not shown) [BUCMD00640]: 3.4 µM
CC(C)Cc1n[nH]c2c1C(c1ccc(F)cc1)N(c1cc(C3CC3)[nH]n1)C2=O (stereo not shown) [BUCMD00170]: >10 µM

// L. donovani amastigotes EC75 (μM, B10R cells) lookup, key: COc1ncc(N2C(=O)c3[nH]nc(CC(C)C)c3C2c2ccc(F)cc2F)cc1F (stereo not shown) [BUCMD00734]
1.5 µM

// L. donovani amastigotes EC75 (μM, B10R cells) lookup, key: Cc1ccc(C2c3c(CC(C)C)n[nH]c3C(=O)N2c2ccc3ncnn3c2)cc1 (stereo not shown) [BUCMD00156]
>10 µM

// L. donovani amastigotes EC75 (μM, B10R cells) lookup, key: COc1ccc(N2C(=O)c3[nH]nc(CC(C)C)c3C2c2ccc(Cl)cc2F)cn1 (stereo not shown) [BUCMD00685]
1.7 µM

// L. donovani amastigotes EC75 (μM, B10R cells) lookup, key: COc1cc(N2C(=O)c3[nH]nc(CC(C)C)c3C2c2ccc(F)cc2)ccc1Br (stereo not shown) [BUCMD00164]
>10 µM

// L. donovani amastigotes EC75 (μM, B10R cells) lookup, key: C#CCn1nc2c(c1CC(C)C)C(c1ccc(F)cc1)N(c1ccc(OC)cc1)C2=O (stereo not shown) [CMLD010986]
>10 µM

// L. donovani amastigotes EC75 (μM, B10R cells) lookup, key: COc1cccc(C2c3c(CC(C)C)n[nH]c3C(=O)N2c2ccc3ncnn3c2)c1 (stereo not shown) [BUCMD00159]
>10 µM

// L. donovani amastigotes EC75 (μM, B10R cells) lookup, key: Cc1ccc(N2C(=O)c3[nH]nc(CC(C)C)c3C2c2ccccc2C)cn1 (stereo not shown) [BUCMD00628]
3.2 µM

###

Listed compounds paired with reported CC50
# test_method_notes: GSK inMac assay, host cell toxicity readout (LD MAC)
# Format: cell-based, human
# protocol_conditions: human; footnote c; read-out: THP-1 Host Cell CC50
# Experimental: The intramacrophage Leishmania donovani activity assay (LD AMMAC) at GlaxoSmithKline was performed as described. Given the literature precedents described above and the apparent narrow tolerance for R^3 substitutions observed in the primary screen compounds, a thorough and methodical assessment was undertaken of tolerated groups at the three points of diversity (R^1/R^2/R^3) for the core. […] In addition, compounds were assessed for toxicity against HepG2 cells (HEPG2 EC50). […]

Solved cases below.
COc1ccc(N2C(=O)c3[nH]nc(CC(C)C)c3C2c2ccc(C(F)(F)F)cc2)cc1 (stereo not shown): 15.9 µM
COc1ccc(N2C(=O)c3[nH]nc(CC(C)C)c3C2c2cncc(OC)c2)cc1 (stereo not shown): 20 µM
COc1cc(N2C(=O)c3[nH]nc(CC(C)C)c3C2c2cccc(C(F)(F)F)c2)cc(OC)c1OC (stereo not shown): 12.6 µM

Now let's try a different one.
// CC50 lookup, key: COc1ccc(N2C(=O)c3[nH]nc(CC(C)C)c3C2c2ccccc2Br)cc1F (stereo not shown)
3 µM

###

# test_method_notes: Artificial membrane permeability (AMP)
# Type: in vitro ADME
# protocol_conditions: PAMPA, pH 7.4
Quick rule: Papp at 3 h of at least 30 ×10⁻⁶ cm/s means true, below that means false.

Example results:
COc1ccc(N2C(=O)c3[nH]nc(CC(C)C)c3C2c2ccnnc2)cc1 (stereo not shown): false
CC(C)Cc1n[nH]c2c1C(c1ccc(F)cc1)N(c1ccc(OC(F)(F)F)cc1)C2=O (stereo not shown): false
COc1ccc(N2C(=O)c3[nH]nc(CC(C)C)c3C2c2cccc(Cl)c2)cc1 (stereo not shown): false
COc1ccc(N2C(=O)c3[nH]nc(CC(C)C)c3C2c2ccncn2)cc1 (stereo not shown): true
COc1ccc(N2C(=O)c3[nH]nc(CC(C)C)c3C2c2ccccc2OC)cc1 (stereo not shown): true
Cc1ccc(CN2C(=O)c3[nH]nc(CC(C)C)c3C2c2ccc(F)cc2)o1 (stereo not shown): true
COc1ccc(N2C(=O)c3[nH]nc(CC(C)C)c3C2c2ccc(F)cc2)cc1F (stereo not shown): false
COc1ccc(N2C(=O)c3[nH]nc(CC(C)C)c3C2c2ccc(Br)cc2)cc1 (stereo not shown): true

# check: Papp at 3 h of CCOc1ccc(N2C(=O)c3[nH]nc(CC(C)C)c3C2c2ccc(F)cc2)cc1 (stereo not shown) is greater than or equal to 30 ×10⁻⁶ cm/s
false

# check: Papp at 3 h of COc1ccc(N2C(=O)c3[nH]nc(CCC(C)C)c3C2c2ccc(F)cc2)cc1 (stereo not shown) is greater than or equal to 30 ×10⁻⁶ cm/s
false

# check: Papp at 3 h of COc1ccc(N2C(=O)c3[nH]nc(CC(C)C)c3C2c2ccc(F)cc2)cn1 (stereo not shown) is greater than or equal to 30 ×10⁻⁶ cm/s
false

# check: Papp at 3 h of COc1ccc(N2C(=O)c3[nH]nc(CC(C)(C)C)c3C2c2ccc(F)cc2)cc1 (stereo not shown) is greater than or equal to 30 ×10⁻⁶ cm/s
false

# check: Papp at 3 h of COC1CCC(N2C(=O)c3[nH]nc(CC(C)C)c3C2c2ccc(F)cc2)CC1 (stereo not shown) is greater than or equal to 30 ×10⁻⁶ cm/s
true

# check: Papp at 3 h of COc1ccc(N2C(=O)c3[nH]nc(CC(C)C)c3C2c2ccc(F)c(F)c2)cc1 (stereo not shown) is greater than or equal to 30 ×10⁻⁶ cm/s
false

# check: Papp at 3 h of COc1ccc(N2C(=O)c3[nH]nc(CC(C)C)c3C2c2ccc(Cl)cc2)cc1 (stereo not shown) is greater than or equal to 30 ×10⁻⁶ cm/s
true
